System: STZ/HFD rat
Assay: Blood glucose determination in the STZ/HFD rat model of Type 2 diabetes
Type: in vivo
Settings: STZ/HFD rat model, oral compound administration (30 mg/kg)
Counter-ions that a name gives are not always drawn.
The entries below come with measured % Reduction in Blood Glucose (maximal reduction) values attached.
Measured Attribute: % Reduction in Blood Glucose (maximal reduction) (%)

Compound	Assayed System	Value Units	Observed Measurement
O=C(Nc1ccc2ccc(S(=O)(=O)Nc3cccc(S(=O)(=O)O)c3)cc2c1)Nc1ccc2ccc(S(=O)(=O)Nc3cccc(S(=O)(=O)O)c3)cc2c1 [Compound 13, disodium salt]	STZ/HFD rat	%	20
O=C(Nc1ccc2ccc(S(=O)(=O)Nc3ccc(Cl)c(C(=O)O)c3)cc2c1)Nc1ccc2ccc(S(=O)(=O)Nc3ccc(Cl)c(C(=O)O)c3)cc2c1	STZ/HFD rat	%	24
O=C(Nc1ccc2c(O)cc(S(=O)(=O)Nc3ccc(Cl)c(S(=O)(=O)O)c3)cc2c1)Nc1ccc2c(O)cc(S(=O)(=O)Nc3ccc(Cl)c(S(=O)(=O)O)c3)cc2c1	STZ/HFD rat	%	25
O=C(Nc1ccc2c(O)cc(S(=O)(=O)Nc3ccc(C(=O)O)cc3)cc2c1)Nc1ccc2c(O)cc(S(=O)(=O)Nc3ccc(C(=O)O)cc3)cc2c1	STZ/HFD rat	%	18
COC(=O)c1cccc(NS(=O)(=O)c2cc(O)c3ccc(NC(=O)Nc4ccc5c(O)cc(S(=O)(=O)Nc6cccc(C(=O)OC)c6)cc5c4)cc3c2)c1	STZ/HFD rat	%	20
